# System: HSV-2 G infected cell lysates
# experimentalProtocol: ELISA binding of recombinant antibodies to HSV-2 G infected cell lysates
# Parameters: species or system HSV-2 G strain
# conditionNotes: Table 3 summary
# Description: Binding of recombinant antibodies to HSV-2 G lysates was tested by ELISA. Both heavy and light chain V(D)J rearrangements were amplified from selected single B-cell culture wells (22D10, 32H6, 33B8, and 35H7) by standard RT-PCR. These cloned V(D)J rearrangements were introduced into expression vectors. Recombinant antibodies were obtained by co-transfection of these expression vectors into Expi293F cells. ≥4 mg of purified IgGs was obtained (not shown). […]

>  <molecule>
HSV010-16: gB-1 specific mouse monoclonal IgG; IgH SEQ ID NO: 76, IgL SEQ ID NO: 78 (antibody, V domains shown, HSV010-16 heavy chain; HSV010-16 light chain) VH: QIQLVQSGPELKKPGETVKISCKASGYTFTTYGMSWVKQAPGKDLKWMGWINTYSGVSTYGDDFKGRFALSLETSASTAYLQINNLKNEDTATYFCAQLNYGMDYWGQGTSVTVSSA VL: DIVMTQSHKFMSTSVGDRVSITCKASQDVSTSLAWYQQKPGQSPKLLIYSASYRYTGVPDRFTGSGSGTDFTFTISSVQAEDLAVYYCHQHYSIPRTFGGGTKLEIKR

>  <Binding to HSV-lysate>
Yes

$$$$

Every entry's value here was drawn from patent US12459987B2.
